B1: TMEM192 (parent)
chain: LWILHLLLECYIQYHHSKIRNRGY

Variants of: B1
assayInfo: protein stability index of a GFP-peptide fusion (GPS, HEK-293T) (PSI 1-6); higher = more stable;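 also: lentivirally expressed fusions sorted by FACS into six bins by GFP to DsRed ratio, PSI derived from sequencing read proportions per bin multiplied by bin number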
particulars: c terminus: a fixed tail appended
Label N if protein stability index falls below 2; label Y in every other case.

I3D
N
H16P
Y
W2R
N
Y14W
N

# input for lookup
Does `R20N` have a reported protein stability index of at least 2?
Y
